tested on: SN12C renal; test: NCI-60 one-dose screen, 48 h (100 = growth as untreated, 0 = no growth, -100 = all killed); settings: 10 µM unless noted
Compounds without any hit were thinned out: in the full panel of roughly 83,000, 20% have a hit.
Known growth of a selection of compounds
RESULT TYPE: growth (%)

>>> print(df.to_string())
                                   compound  recorded_value
0    OB([O][Hg][c]1ccccc1)[O][Hg][c]1ccccc1           -99.6
1         COc1cc(CNCCc2ccc(Cl)cc2)cc(OC)c1O            75.5
2  CCC1CN1P(=O)(OCCOC)N1CC1CC (stereo not drawn)             101

----------
tested on: HL-60(TB) leukemia; test: NCI-60 one-dose screen, 48 h; conditions: 10 µM unless noted
This is part of a sample that, as a whole, favours compounds with a hit. Of some 83,000 tested, about 20% had one in any assay. Active and inactive are the calls of the source. The calls were made as follows: active = growth percent below 10; inactive = the rest.
Classes used: YES for active, NO for inactive

>>> df
                                    compound     measured_target  class_name
 0  Cc1cnc(C(=O)NNc2nc3sc4c(c3c(=O)[nH]2)C(C)CCC4)cn1 (centres undefined)  HL-60(TB) leukemia         YES
 1  COc1c(O)c2c3c(c1OC)-c1ccccc1CC3N(S(=O)(=O)c1ccc(C)cc1)CC2 (centres undefined)  HL-60(TB) leukemia         YES
 2                Clc1ccc(Cc2nc3ccccc3s2)cc1  HL-60(TB) leukemia          NO
 3  CC(C)C[C@H](C(=O)N[C@H](C(N)=O)C(C)C)N1CC=CCN(OCc2ccccc2)S1(=O)=O  HL-60(TB) leukemia          NO
 4  O=C1/C=C/[C@@H](O)[C@@H]2C[C@@H](O)C[C@H]2/C=C/CCC[C@H](C(F)(F)F)O1  HL-60(TB) leukemia         YES
 5  O=C(COc1ccc(/C=C2\Oc3ccc4ccccc4c3C2=O)cc1)c1ccc([N+](=O)[O-])cc1  HL-60(TB) leukemia          NO
 6  COc1cc(/C=C/C(=O)c2cccs2)ccc1OCc1ccc(Cl)nc1  HL-60(TB) leukemia          NO
 7          O=c1[nH]c(=O)n(Cc2ccc(F)cc2)cc1F  HL-60(TB) leukemia          NO
 8  CNC(=O)c1cccc2cc(Oc3ccnc4cc(OCC5(N)CC5)c(OC)cc34)ccc12  HL-60(TB) leukemia          NO
 9  NC(=O)OCCn1cc(-c2nc(-c3c[nH]c4ncccc34)cs2)c2ccccc21  HL-60(TB) leukemia         YES
10  O=C(Nc1ccncc1)C(=O)c1cn(S(=O)(=O)c2ccc(F)cc2)c2ccccc12  HL-60(TB) leukemia         YES
11   Nc1c(C(=O)Nc2ccccn2)sc2nc3c(cc12)CCCCC3  HL-60(TB) leukemia         YES
12  COC(=O)/C(=C\c1c(C)[nH]c2ccccc12)S(=O)(=O)c1ccccc1  HL-60(TB) leukemia         YES
13  Cn1c(=O)c2[nH]c(=S)n(Cc3ccccc3)c2n(C)c1=O  HL-60(TB) leukemia          NO
14  CCOC(=O)c1cc(/C(=N\O)c2cc(OC)c(OC)c(OC)c2)n2cc(C)cc(C)c12  HL-60(TB) leukemia         YES
15  Cc1ccc(-n2nc3n(/c2=N\C(=O)NS(=O)(=O)c2ccc(C)cc2)CCN3C2=NCCN2)cc1  HL-60(TB) leukemia          NO
16  CN(C)Cc1ccc(NC(=O)c2cncc(C#Cc3cnc(N)c4ncccc34)c2)cc1C(F)(F)F  HL-60(TB) leukemia          NO
17  Cc1ccc(NS(=O)(=O)c2ccc3c(c2)C(=O)CC(c2ccc(C(=O)C(C)C)cc2)N3)cc1C (centres undefined)  HL-60(TB) leukemia          NO
18                           Nc1cc(O)cc(O)c1  HL-60(TB) leukemia          NO
